Origin of values: the supplement of paper PMC5998384

# Test system: HeLa Kyoto;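 note: synchronized HeLa Kyoto cells, proteins quantified by TMT10plex mass spectrometry, three biological replicates, mitosis taken 0.5 h after nocodazole release, G1/S directly after double thymidine block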
# Method summary: thermal stability score vs G1/S (z-score of summed log2 fold changes over temperatures); higher = more thermally stable than in G1/S
# Experimental setup: cell cycle stage: mitosis
Property label: thermal stability score
Enter the number alone.

Inquiry: thermal stability score lookup needed for MAAKVFESIGKFGLALAVAGGVVNSALYNVDAGHRAVIFDRFRGVQDIVVGEGTHFLIPWVQKPIIFDCRSRPRNVPVITGSKDLQNVNITLRILFRPVASQLPRIFTSIGEDYDERVLPSITTEILKSVVARFDAGELITQRELVSRQVSDDLTERAATFGLILDDVSLTHLTFGKEFTEAVEAKQVAQQEAERARFVVEKAEQQKKAAIISAEGDSKAAELIANSLATAGDGLIELRKLEAAEDIAYQLSRSRNITYLPAGQSVLLQLPQ [PHB] , thanks.
Reply text: -2.71

Inquiry: Here is the next sequence: MASPSRRLQTKPVITCFKSVLLIYTFIFWITGVILLAVGIWGKVSLENYFSLLNEKATNVPFVLIATGTVIILLGTFGCFATCRASAWMLKLYAMFLTLVFLVELVAAIVGFVFRHEIKNSFKNNYEKALKQYNSTGDYRSHAVDKIQNTLHCCGVTDYRDWTDTNYYSEKGFPKSCCKLEDCTPQRDADKVNNEGCFIKVMTIIESEMGVVAGISFGVACFQLIGIFLAYCLSRAITNNQYEIV [TSPAN6]
Reply text: -2.28

Inquiry: Here is the next sequence: MLLWPLRGWAARALRCFGPGSRGSPASGPGPRRVQRRAWPPDKEQEKEKKSVICVEGNIASGKTTCLEFFSNATDVEVLTEPVSKWRNVRGHNPLGLMYHDASRWGLTLQTYVQLTMLDRHTRPQVSSVRLMERSIHSARYIFVENLYRSGKMPEVDYVVLSEWFDWILRNMDVSVDLIVYLRTNPETCYQRLKKRCREEEKVIPLEYLEAIHHLHEEWLIKGSLFPMAAPVLVIEADHHMERMLELFEQNRDRILTPENRKHCP [TK2]
Reply text: -2.11
